For each of the binders below, state its Kd.
Biological target: T1, EsCas13d, nuclease-dead (Eubacterium siraeum, UniProt B0MS50, R295A;H300A;R849A;H854A)
T1 sequence: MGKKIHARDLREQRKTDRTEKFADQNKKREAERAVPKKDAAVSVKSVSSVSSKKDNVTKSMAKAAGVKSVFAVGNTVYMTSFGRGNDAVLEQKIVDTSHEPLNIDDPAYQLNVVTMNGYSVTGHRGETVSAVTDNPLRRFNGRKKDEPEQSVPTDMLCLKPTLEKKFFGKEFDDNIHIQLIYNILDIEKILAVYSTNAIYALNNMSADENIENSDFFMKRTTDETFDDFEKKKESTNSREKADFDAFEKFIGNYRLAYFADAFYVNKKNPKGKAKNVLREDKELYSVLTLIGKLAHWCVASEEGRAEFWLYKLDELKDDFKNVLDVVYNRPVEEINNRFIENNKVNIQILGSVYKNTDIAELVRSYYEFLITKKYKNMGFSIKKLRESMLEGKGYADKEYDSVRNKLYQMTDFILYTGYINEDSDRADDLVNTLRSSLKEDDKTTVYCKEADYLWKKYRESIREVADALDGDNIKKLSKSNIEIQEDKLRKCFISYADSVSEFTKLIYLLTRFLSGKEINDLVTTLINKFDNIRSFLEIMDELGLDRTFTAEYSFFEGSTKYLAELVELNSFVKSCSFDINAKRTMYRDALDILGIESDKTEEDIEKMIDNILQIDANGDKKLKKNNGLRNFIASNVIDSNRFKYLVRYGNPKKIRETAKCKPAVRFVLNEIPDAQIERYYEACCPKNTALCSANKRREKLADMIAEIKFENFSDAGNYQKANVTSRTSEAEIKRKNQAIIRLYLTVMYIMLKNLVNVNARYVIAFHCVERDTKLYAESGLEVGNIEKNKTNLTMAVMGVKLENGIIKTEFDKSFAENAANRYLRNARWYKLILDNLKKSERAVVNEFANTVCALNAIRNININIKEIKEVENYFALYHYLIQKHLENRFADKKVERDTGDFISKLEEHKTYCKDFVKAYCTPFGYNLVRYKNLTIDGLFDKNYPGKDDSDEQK
Test: crRNA (strand 1, pre-loaded); Mg2+; 40 mM Tris-HCl pH 7.5, 150 mM NaCl, 6 mM MgCl2, 1 mM DTT, 0.1% Tween-20, 0.2 mg/ml BSA; 25 C; 10 min per concentration, then washed
Details: tags: His6-TwinStrep-SUMO cleaved; N-terminal SNAP kept (SNAP-Surface 488); label: 3' end held by stalled T7 RNA polymerase
Give bare numbers, in nM.

Answered examples (3):
binder="target 1 insC 3' of 15,insG 3' of 10 (mixed) RNA 1: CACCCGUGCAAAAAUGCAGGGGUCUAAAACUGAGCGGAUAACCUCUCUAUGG RNA 2: GGGAAUGGAUCCACAUCUACGAAUUCGUACCAUAGAGCAGGUUGAUCCGCUCACCGAGAUCGGAAGAGCACACGU" parameter=Kd value_unit=nM meas_value=24.6
binder="target 1 insA 3' of 19,insU 3' of 6 (mixed) RNA 1: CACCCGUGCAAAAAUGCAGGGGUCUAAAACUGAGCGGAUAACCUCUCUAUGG RNA 2: GGGAAUGGAUCCACAUCUACGAAUUCGUACCAUAAGAGAGGUUAUCCUGCUCACCGAGAUCGGAAGAGCACACGU" parameter=Kd value_unit=nM meas_value=22.9
binder="target 1 insC 3' of 15,insG 3' of 2 (mixed) RNA 1: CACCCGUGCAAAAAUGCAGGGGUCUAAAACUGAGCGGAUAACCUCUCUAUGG RNA 2: GGGAAUGGAUCCACAUCUACGAAUUCGUACCAUAGAGCAGGUUAUCCGCUCGACCGAGAUCGGAAGAGCACACGU" parameter=Kd value_unit=nM meas_value=17.9

Now turn to the next binder.
Please report Kd for the following binder: target 3 G3C,U22C (mixed) RNA 1: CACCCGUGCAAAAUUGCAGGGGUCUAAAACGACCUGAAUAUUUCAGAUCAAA RNA 2: GGGAAUGGAUCCACAUCUACGAAUUCGUUCUUGAUCUGAAAUAUUCAGCUCUGCAGAUCGGAAGAGCACACGU
28

The measured values listed here are drawn from paper PMC10786891.
